Field: folding enthalpy. Provide a value for each of the sequences that follow.
Test: folding enthalpy; higher = less favourable; fluorescence melt of hairpins on a sequencing array, two-state fit
Details: sodium 0.088 M
Numbers only, in kcal/mol.

Give folding enthalpy for each of the items listed below.
1. GGGCTCCGAAAGGATCCC (((.(((....))).)))
2. GATCCAAGATGGATC ((((((...))))))
3. GATCATAAGAATGATC ((((((....))))))

-44.4
-34
-27.7

Give folding enthalpy for each of the items listed below.
1. GATCGACCGTCGATC ((((((...))))))
2. GCAACTCGAAAGAGATGC (((.(((....))).)))
3. CGTCCGGAAACGGGGACG ((((((....)))..)))
4. GCGCAGCGAAAGCGCCGC (((..((....))..)))
5. GTCACGCCGAAAGGCGAC (((..(((....))))))
6. GTATTACGAAAGTAGTAC (((.(((....))).)))
7. GAGAAAGAAATTTCTC ((((((....))))))

1. -36
2. -40.1
3. -25
4. -13.1
5. -6.44
6. -28.4
7. -18.8

Give folding enthalpy for each of the items listed below.
1. GCTTTCGAAAGAATAAGC ((((((....)))..)))
2. GATTAAGCGAAAGCTATC (((..(((....))))))

-21.6
-9.58
